assay: Mouse pharmacokinetics/metabolism study; format: in vivo, C57BL/6J mice; settings: parent compound, 10 mg/kg IP, 0.5 hr
Where a SMILES comes first, the peptide text is derived from it. [ ]: non-standard residue; d: D form. Tic = O=C(O)[C@@H]1Cc2ccccc2CN1; Chg = N[C@H](C(=O)O)C1CCCCC1
MEASUREMENT_KIND: Mean Plasma Concentration 0.5 hr (ng/mL)
Respond with the bare value in ng/mL.

-- ask Return Mean Plasma Concentration 0.5 hr (reported value) for this compound: CC(=O)N[C@H](C(=O)N[C@H](C(=O)N[C@@H](CCCNC(=N)N)C(=O)N1Cc2ccccc2C[C@H]1C(=O)N[C@@H](Cc1ccccc1)C(N)=O)C1CCCCC1)C(C)C [PV-267, Ac-V-(Chg)-R-(Tic)-F—NH2] (Ac-V[Chg]R[Tic]F-NH2)
-- reply 91.5

###

assay: Mouse pharmacokinetics/metabolism study; format: in vivo, C57BL/6J mice; details: C57BL/6J, mouse, in vivo, ip, 10 mg/kg
Where a SMILES comes first, the peptide text is derived from it. [ ]: non-standard residue; d: D form. The star is where a group is joined. Tic = O=C(O)[C@@H]1Cc2ccccc2CN1; Chg = N[C@H](C(=O)O)C1CCCCC1; NHCH2CH2OMe = COCCN*
MEASUREMENT_KIND: level at 0.25 h (ng/mL)
Respond with the bare value in ng/mL.

-- ask Return level at 0.25 h (reported value) for this compound: COCCNC(=O)[C@H](Cc1ccccc1)NC(=O)[C@@H]1Cc2ccccc2CN1C(=O)[C@H](CCCNC(=N)N)NC(=O)[C@@H](NC(=O)[C@@H](NC(C)=O)C(C)C)C1CCCCC1 [PV-3212, Ac-V-(Chg)-R-(Tic)-F—NH(CH2CH2O)1CH3] (Ac-V[Chg]R[Tic]F-NHCH2CH2OMe)
-- reply 741

###

biological target: HLA-DRB1*15:01 (Homo sapiens, UniProt P01903+P01911); construct: endogenous in cells; host or cells: EBV homozygous cell lines (human); test: HLA II binding assay (competitive, biotinylated reference peptide); conditions: Table 2, DRB1*15:01 binding; unit inferred, nM; read-out: Avg IC50
Where a SMILES comes first, the peptide text is derived from it. [ ]: non-standard residue; d: D form. ξ: configuration not given here. ξGly(4-Pip(1-amidino)) = N=C(N)N1CCC(C(N)C(=O)O)CC1; Ala(indol-4-yl) = N[C@@H](Cc1cccc2[nH]ccc12)C(=O)O; Phe(4-F) = N[C@@H](Cc1ccc(F)cc1)C(=O)O; Dab(CONH2) = NC(=O)NCC[C@H](N)C(=O)O; Bta = N[C@@H](Cc1csc2ccccc12)C(=O)O; Igl = N[C@H](C(=O)O)C1Cc2ccccc2C1; Tic = O=C(O)[C@@H]1Cc2ccccc2CN1; Cit = NC(=O)NCCC[C@H](N)C(=O)O; Agb = N=C(N)NCC[C@H](N)C(=O)O; Chg = N[C@H](C(=O)O)C1CCCCC1; Tle = CC(C)(C)[C@H](N)C(=O)O
Category key, based on recorded IC50: class 1 = under 2 nM, class 2 = from 2 nM up to 20 nM, class 3 = 20 nM and over

Solved entries:
CC(=O)N[C@H](C(=O)N[C@H](C(=O)N[C@@H](CCNC(=N)N)C(=O)N1Cc2ccccc2C[C@H]1C(=O)N[C@@H](Cc1ccccc1)C(N)=O)C1CCCCC1)C(C)C [PV-562] (Ac-V[Chg][Agb][Tic]F-NH2): class 2
CNC(=O)[C@H](Cc1ccccc1)NC(=O)[C@@H]1Cc2ccccc2CN1C(=O)[C@H](CCCNC(=N)N)NC(=O)[C@@H](NC(=O)[C@@H](NC(C)=O)C(C)C)C1Cc2ccccc2C1 [PV-629] (Ac-V[Igl]R[Tic]F-NHMe): class 2
CC(=O)N[C@H](C(=O)N[C@H](C(=O)N[C@@H](CCCNC(=N)N)C(=O)N1Cc2ccccc2C[C@H]1C(=O)N[C@@H](Cc1cccc2[nH]ccc12)C(N)=O)C1CCCCC1)C(C)C [PV-493] (Ac-V[Chg]R[Tic][Ala(indol-4-yl)]-NH2): class 1
CC(=O)N[C@H](C(=O)N[C@H](C(=O)N[C@@H](CCCNC(=N)N)C(=O)N1Cc2ccccc2C[C@H]1C(=O)N[C@@H](Cc1ccccc1)C(=O)O)C1CCCCC1)C(C)C [PV-623, Ac-V-(Chg)-R-(Tic)-F—OH] (Ac-V[Chg]R[Tic]F-OH): class 3
CC(=O)N[C@H](C(=O)N[C@H](C(=O)N[C@@H](CCNC(N)=O)C(=O)N1Cc2ccccc2C[C@H]1C(=O)N[C@@H](Cc1ccccc1)C(N)=O)C1CCCCC1)C(C)C [PV-642] (Ac-V[Chg][Dab(CONH2)][Tic]F-NH2): class 2
CC(=O)N[C@H](C(=O)N[C@H](C(=O)N[C@@H](CCCNC(=N)N)C(=O)N1Cc2ccccc2C[C@H]1C(=O)N[C@@H](Cc1ccccc1)C(N)=O)C1CCCCC1)[C@@H](C)O [PV-526] (Ac-T[Chg]R[Tic]F-NH2): class 3
CC(=O)N[C@H](C(=O)N[C@H](C(=O)NC(C(=O)N1Cc2ccccc2C[C@H]1C(=O)N[C@@H](Cc1ccccc1)C(N)=O)C1CCN(C(=N)N)CC1)C1CCCCC1)C(C)C (some centres unmarked) [PV-810] (Ac-V[Chg][ξGly(4-Pip(1-amidino))][Tic]F-NH2): class 2
CC(=O)N[C@H](C(=O)N[C@H](C(=O)N[C@@H](CCCNC(=N)N)C(=O)N1Cc2ccccc2C[C@H]1C(=O)N[C@@H](Cc1ccc(F)cc1)C(N)=O)C1CCCCC1)C(C)C [PV-574] (Ac-V[Chg]R[Tic][Phe(4-F)]-NH2): class 2
CC(=O)N[C@H](C(=O)N[C@H](C(=O)N[C@@H](CCCNC(=N)N)C(=O)N1Cc2ccccc2C[C@H]1C(=O)N[C@@H](Cc1ccccc1)C(N)=O)C1CCCCC1)C(C)(C)C [PV-590] (Ac-[Tle][Chg]R[Tic]F-NH2): class 1
CC(=O)N[C@H](C(=O)N[C@H](C(=O)N[C@@H](CCCNC(=N)N)C(=O)N1Cc2ccccc2C[C@H]1C(=O)N[C@@H](Cc1csc2ccccc12)C(N)=O)C1CCCCC1)C(C)C [PV-478] (Ac-V[Chg]R[Tic][Bta]-NH2): class 2

-- ask Quick check: band for CC(C)[C@H](NC(=O)CN)C(=O)N[C@H](C(=O)N[C@@H](CCCNC(N)=O)C(=O)N1Cc2ccccc2C[C@H]1C(=O)N[C@@H](Cc1ccccc1)C(N)=O)C1CCCCC1 [PV-661] (H-GV[Chg][Cit][Tic]F-NH2)
-- reply class 2

-- ask Quick check: band for CC(=O)N[C@H](C(=O)N[C@H](C(=O)N[C@@H](CCCNC(=N)N)C(=O)N1Cc2ccccc2C[C@H]1C(=O)N[C@@H](Cc1ccccc1)C(=O)O)C1Cc2ccccc2C1)C(C)C [PV-624] (Ac-V[Igl]R[Tic]F-OH)
-- reply class 3

-- ask Quick check: band for CC(=O)N[C@H](C(=O)N[C@@H](CCCNC(=N)N)C(=O)N1Cc2ccccc2C[C@H]1C(=O)N[C@@H](Cc1c[nH]c2ccccc12)C(N)=O)C1CCCCC1 [PV-507] (Ac-[Chg]R[Tic]W-NH2)
-- reply class 3
